# STUDY_SYSTEM: Tubulin (Homo sapiens) (UniProt P68371+Q9H4B7+P0DPH7+P68366+Q13509+Q71U36+P04350+Q3ZCM7+P07437+P68363+Q9BQE3+Q6PEY2+Q13885+Q9BVA1+Q9BUF5)
# ASSAY_COMMENT: Inhibition of tubulin polymerization in human MCF7 cells at 2 uM after 24 hrs by FITC-conjugated immunostaining assay
# Format: cell-based
The source made the active and inactive calls. The calls are words filed in the database; no cut-off is given here.
Outcomes: active, inactive

>  <STRUCTURE>
COc1cc2c(cc1OCCCCCOc1ccc(C(c3c[nH]c4ccccc34)c3c[nH]c4ccccc34)cc1)N=C[C@@H]1CCCN1C2=O

>  <GROUP_LABEL>
active

$$$$
>  <STRUCTURE>
Oc1cccc(C(c2c[nH]c3ccccc23)c2c[nH]c3ccccc23)c1

>  <GROUP_LABEL>
active

$$$$
>  <STRUCTURE>
Oc1ccc(C(c2c[nH]c3ccccc23)c2c[nH]c3ccccc23)cc1

>  <GROUP_LABEL>
active

$$$$
>  <STRUCTURE>
COc1cc2c(cc1OCCCCCOc1cccc(C(c3c[nH]c4ccccc34)c3c[nH]c4ccccc34)c1)N=C[C@@H]1CCCN1C2=O

>  <GROUP_LABEL>
active

$$$$
>  <STRUCTURE>
COc1cc2c(cc1O)N=C[C@@H]1CCCN1C2=O

>  <GROUP_LABEL>
inactive

$$$$

====

# Tested on: MCF7
# ASSAY_COMMENT: Induction of apoptosis in human MCF7 cells assessed as PARP-cleavage at 8 uM after 24 hrs by Western blot analysis
# Format: functional, cell-based
The source made the active and inactive calls. No cut-off for these calls is given here.

>  <STRUCTURE>
COc1cc2c(cc1OCCCCCOc1cccc(C(c3c[nH]c4ccccc34)c3c[nH]c4ccccc34)c1)N=C[C@@H]1CCCN1C2=O

>  <STUDY_SYSTEM>
MCF7

>  <Activity>
Active

$$$$
>  <STRUCTURE>
COc1cc2c(cc1OCCCCCOc1ccc(C(c3c[nH]c4ccccc34)c3c[nH]c4ccccc34)cc1)N=C[C@@H]1CCCN1C2=O

>  <STUDY_SYSTEM>
MCF7

>  <Activity>
Active

$$$$
>  <STRUCTURE>
COc1cc2c(cc1O)N=C[C@@H]1CCCN1C2=O

>  <STUDY_SYSTEM>
MCF7

>  <Activity>
Active

$$$$
>  <STRUCTURE>
Oc1ccc(C(c2c[nH]c3ccccc23)c2c[nH]c3ccccc23)cc1

>  <STUDY_SYSTEM>
MCF7

>  <Activity>
Active

$$$$
>  <STRUCTURE>
Oc1cccc(C(c2c[nH]c3ccccc23)c2c[nH]c3ccccc23)c1

>  <STUDY_SYSTEM>
MCF7

>  <Activity>
Active

$$$$

====

# System: MCF7
# ASSAY_COMMENT: Induction of cell cycle arrest in human MCF7 cells assessed as accumulation of cells in G0 phase at 8 uM after 24 hrs by flow cytometry (reference value: 3.22%)
# Type: functional
Reported values of Activity for individual entries

>  <STRUCTURE>
COc1cc2c(cc1OCCCCCOc1cccc(C(c3c[nH]c4ccccc34)c3c[nH]c4ccccc34)c1)N=C[C@@H]1CCCN1C2=O

>  <STUDY_SYSTEM>
MCF7

>  <UNIT_SYMBOL>
%

>  <Activity>
24.25

$$$$
>  <STRUCTURE>
COc1cc2c(cc1OCCCCCOc1ccc(C(c3c[nH]c4ccccc34)c3c[nH]c4ccccc34)cc1)N=C[C@@H]1CCCN1C2=O

>  <STUDY_SYSTEM>
MCF7

>  <UNIT_SYMBOL>
%

>  <Activity>
51.96

$$$$
>  <STRUCTURE>
Oc1cccc(C(c2c[nH]c3ccccc23)c2c[nH]c3ccccc23)c1

>  <STUDY_SYSTEM>
MCF7

>  <UNIT_SYMBOL>
%

>  <Activity>
6

$$$$
>  <STRUCTURE>
COc1cc2c(cc1O)N=C[C@@H]1CCCN1C2=O

>  <STUDY_SYSTEM>
MCF7

>  <UNIT_SYMBOL>
%

>  <Activity>
30.04

$$$$
>  <STRUCTURE>
Oc1ccc(C(c2c[nH]c3ccccc23)c2c[nH]c3ccccc23)cc1

>  <STUDY_SYSTEM>
MCF7

>  <UNIT_SYMBOL>
%

>  <Activity>
7

$$$$

====

# Test system: MCF7
# ASSAY_COMMENT: Induction of cell cycle arrest in human MCF7 cells assessed as accumulation of cells in S phase at 8 uM after 24 hrs by flow cytometry (reference value: 5.55%)
# Format: functional

>  <STRUCTURE>
COc1cc2c(cc1OCCCCCOc1cccc(C(c3c[nH]c4ccccc34)c3c[nH]c4ccccc34)c1)N=C[C@@H]1CCCN1C2=O

>  <Activity, %>
4.82

$$$$
>  <STRUCTURE>
COc1cc2c(cc1OCCCCCOc1ccc(C(c3c[nH]c4ccccc34)c3c[nH]c4ccccc34)cc1)N=C[C@@H]1CCCN1C2=O

>  <Activity, %>
2.04

$$$$
>  <STRUCTURE>
Oc1ccc(C(c2c[nH]c3ccccc23)c2c[nH]c3ccccc23)cc1

>  <Activity, %>
8.97

$$$$
>  <STRUCTURE>
COc1cc2c(cc1O)N=C[C@@H]1CCCN1C2=O

>  <Activity, %>
4.59

$$$$
>  <STRUCTURE>
Oc1cccc(C(c2c[nH]c3ccccc23)c2c[nH]c3ccccc23)c1

>  <Activity, %>
9.08

$$$$

====

# Tested on: MCF7
# ASSAY_COMMENT: Induction of cell cycle arrest in human MCF7 cells assessed as accumulation of cells in G0 phase at 4 uM after 24 hrs by flow cytometry relative to untreated control
# Type: functional
Answer NOT MET if Activity is under 10%, and MET if it is 10% or more.

>  <STRUCTURE>
COc1cc2c(cc1OCCCCCOc1cccc(C(c3c[nH]c4ccccc34)c3c[nH]c4ccccc34)c1)N=C[C@@H]1CCCN1C2=O

>  <GROUP_LABEL>
MET

$$$$
>  <STRUCTURE>
Oc1cccc(C(c2c[nH]c3ccccc23)c2c[nH]c3ccccc23)c1

>  <GROUP_LABEL>
NOT MET

$$$$
>  <STRUCTURE>
Oc1ccc(C(c2c[nH]c3ccccc23)c2c[nH]c3ccccc23)cc1

>  <GROUP_LABEL>
NOT MET

$$$$
>  <STRUCTURE>
COc1cc2c(cc1O)N=C[C@@H]1CCCN1C2=O

>  <GROUP_LABEL>
NOT MET

$$$$
>  <STRUCTURE>
COc1cc2c(cc1OCCCCCOc1ccc(C(c3c[nH]c4ccccc34)c3c[nH]c4ccccc34)cc1)N=C[C@@H]1CCCN1C2=O

>  <GROUP_LABEL>
MET

$$$$

====

# System: MCF7
# ASSAY_COMMENT: Induction of cell cycle arrest in human MCF7 cells assessed as accumulation of cells in G2/M phase at 4 uM after 24 hrs by flow cytometry relative to untreated control
# Format: functional
Reported values of Activity for individual entries
TEST_READOUT: Activity (%)

>  <STRUCTURE>
COc1cc2c(cc1OCCCCCOc1ccc(C(c3c[nH]c4ccccc34)c3c[nH]c4ccccc34)cc1)N=C[C@@H]1CCCN1C2=O

>  <TEST_READOUT>
Activity

>  <TEST_RESULT>
8.6

$$$$
>  <STRUCTURE>
Oc1ccc(C(c2c[nH]c3ccccc23)c2c[nH]c3ccccc23)cc1

>  <TEST_READOUT>
Activity

>  <TEST_RESULT>
35.56

$$$$
>  <STRUCTURE>
COc1cc2c(cc1O)N=C[C@@H]1CCCN1C2=O

>  <TEST_READOUT>
Activity

>  <TEST_RESULT>
11.31

$$$$
>  <STRUCTURE>
Oc1cccc(C(c2c[nH]c3ccccc23)c2c[nH]c3ccccc23)c1

>  <TEST_READOUT>
Activity

>  <TEST_RESULT>
36.3

$$$$
>  <STRUCTURE>
COc1cc2c(cc1OCCCCCOc1cccc(C(c3c[nH]c4ccccc34)c3c[nH]c4ccccc34)c1)N=C[C@@H]1CCCN1C2=O

>  <TEST_READOUT>
Activity

>  <TEST_RESULT>
10.74

$$$$

====

# System: MCF7
# ASSAY_COMMENT: Induction of cell cycle arrest in human MCF7 cells assessed as accumulation of cells in S phase at 4 uM after 24 hrs by flow cytometry (reference value: 5.55%)
# Format: functional
Reported values of Activity for individual entries
TEST_READOUT: Activity

>  <STRUCTURE>
Oc1ccc(C(c2c[nH]c3ccccc23)c2c[nH]c3ccccc23)cc1

>  <STUDY_SYSTEM>
MCF7

>  <TEST_RESULT>
9.34%

$$$$
>  <STRUCTURE>
COc1cc2c(cc1OCCCCCOc1ccc(C(c3c[nH]c4ccccc34)c3c[nH]c4ccccc34)cc1)N=C[C@@H]1CCCN1C2=O

>  <STUDY_SYSTEM>
MCF7

>  <TEST_RESULT>
6.97%

$$$$
>  <STRUCTURE>
Oc1cccc(C(c2c[nH]c3ccccc23)c2c[nH]c3ccccc23)c1

>  <STUDY_SYSTEM>
MCF7

>  <TEST_RESULT>
9.24%

$$$$
>  <STRUCTURE>
COc1cc2c(cc1O)N=C[C@@H]1CCCN1C2=O

>  <STUDY_SYSTEM>
MCF7

>  <TEST_RESULT>
9.57%

$$$$
>  <STRUCTURE>
COc1cc2c(cc1OCCCCCOc1cccc(C(c3c[nH]c4ccccc34)c3c[nH]c4ccccc34)c1)N=C[C@@H]1CCCN1C2=O

>  <STUDY_SYSTEM>
MCF7

>  <TEST_RESULT>
8.67%

$$$$
